Reported efficacy (spider mites killed) is given for each of the following molecules.
Tested on: greenhouse red spider mite (Tetranychus urticae)
ASSAY_SUMMARY: Tetranychus test; OP-resistant (TETRUR spray treatment)
Assay type: in vivo
CONDITION_SUMMARY: application rate 100 g/ha; bean leaf discs sprayed; after 6 days
Just so you know, I need the unit written after the number.

molecule="CCc1ccc(-c2ccc(Cl)cc2)c(C)c1C1=C(O)C2(CCC(OC)CC2)OC1=O (single isomer, unassigned) [Example I-2-a-6]" parameter="efficacy (spider mites killed)" readout_value=100%
molecule="Cc1ccc(-c2ccc(Cl)cc2)c(Cl)c1C1=C(O)C2(CCOCC2)NC1=O [Example I-1-a-11]" parameter="efficacy (spider mites killed)" readout_value=100%
molecule="COC1CCC2(CC1)NC(=O)C(c1c(Cl)ccc(-c3ccc(F)cc3)c1C)=C2O (stereo not shown) [Example I-1-a-14]" parameter="efficacy (spider mites killed)" readout_value=90%
molecule="CCc1cc(C)c(-c2ccc(Cl)cc2)c(C)c1C1=C(O)C2(CCC(OC)CC2)NC1=O (stereo not shown) [Example I-1-a-7]" parameter="efficacy (spider mites killed)" readout_value=90%
molecule="CCc1c(-c2ccc(Cl)cc2)ccc(C)c1C1=C(O)C2(CCC(OC)CC2)NC1=O (stereo not shown) [Example I-1-a-16]" parameter="efficacy (spider mites killed)" readout_value=90%

*Q* Need efficacy (spider mites killed) of CCc1ccc(-c2ccc(F)cc2)c(CC)c1C1=C(O)C2(CCOCC2)NC1=O [Example I-1-a-20] , thanks.
*A* 100%

*Q* Find the recorded efficacy (spider mites killed) belonging to CCc1ccc(-c2ccc(Cl)cc2)c(CC)c1C1=C(O)C2(CCN(OC)CC2)NC1=O [Example I-1-a-24] and report it.
*A* 100%

*Q* // lookup efficacy (spider mites killed) for Cc1c(-c2ccc(Cl)cc2)ccc(Cl)c1C1=C(O)C2(CCOCC2)NC1=O [Example I-1-a-15]
*A* 90%

*Q* # input molecule: O=C1NC2(CCOCC2)C(O)=C1c1c(Cl)ccc(-c2ccc(F)cc2)c1Cl [Example I-1-a-6] ; wanted: its efficacy (spider mites killed)
*A* 100%

*Q* May I ask what efficacy (spider mites killed) has been recorded for CCc1c(-c2ccc(F)cc2)ccc(C)c1C1=C(O)C2(CCC(OC)CC2)NC1=O (stereo not shown) [Example I-1-a-9] ?
*A* 70%

====

The following compounds are listed with their measured efficacy (spider mites killed) values.
Tested on: greenhouse red spider mite (Tetranychus urticae)
ASSAY_SUMMARY: Tetranychus test; OP-resistant (TETRUR spray treatment)
Assay type: in vivo
CONDITION_SUMMARY: application rate 100 g/ha; bean leaf discs sprayed; after 6 days
The answer is to be given in %; state only the numeric part.

// known answers, use as guide
compound=CCc1ccc(-c2ccc(Cl)cc2)c(C)c1C1=C(O)C2(CCOCC2)OC1=O target="greenhouse red spider mite (Tetranychus urticae)" parameter="efficacy (spider mites killed)" display_unit=% readout_value=100
compound="CCc1ccc(-c2ccc(F)cc2)c(CC)c1C1=C(O)C2(CCC(OC)CC2)NC1=O (centres unmarked)" target="greenhouse red spider mite (Tetranychus urticae)" parameter="efficacy (spider mites killed)" display_unit=% readout_value=100
compound="CCc1ccc(-c2ccc(F)cc2)c(C)c1C1=C(O)C2(CCC(OC)CC2)NC1=O (centres unmarked)" target="greenhouse red spider mite (Tetranychus urticae)" parameter="efficacy (spider mites killed)" display_unit=% readout_value=100
compound=CCc1ccc(-c2ccc(Cl)cc2)c(C)c1C1=C(O)C2(CCN(OC)CC2)NC1=O target="greenhouse red spider mite (Tetranychus urticae)" parameter="efficacy (spider mites killed)" display_unit=% readout_value=90
compound=CCc1cc(C)c(-c2ccc(Cl)cc2)c(C)c1C1=C(O)C2(CCOCC2)NC1=O target="greenhouse red spider mite (Tetranychus urticae)" parameter="efficacy (spider mites killed)" display_unit=% readout_value=90

*Q* Form field: reported efficacy (spider mites killed) of CCc1ccc(-c2ccc(Cl)cc2)c(CC)c1C1=C(O)C2(CCOCC2)OC1=O
*A* 100

*Q* Please report the recorded efficacy (spider mites killed) for CCc1ccc(-c2ccc(Cl)cc2)c(CC)c1C1=C(O)[C@]2(CC[C@H](OC)CC2)OC1=O .
*A* 100

*Q* Sample CCc1ccc(-c2ccc(F)cc2)c(C)c1C1=C(O)C2(CCOCC2)NC1=O — what was its efficacy (spider mites killed)?
*A* 90
